biological target: aurora2 kinase (Homo sapiens, UniProt O14965)
Sequence (O14965 whole entry): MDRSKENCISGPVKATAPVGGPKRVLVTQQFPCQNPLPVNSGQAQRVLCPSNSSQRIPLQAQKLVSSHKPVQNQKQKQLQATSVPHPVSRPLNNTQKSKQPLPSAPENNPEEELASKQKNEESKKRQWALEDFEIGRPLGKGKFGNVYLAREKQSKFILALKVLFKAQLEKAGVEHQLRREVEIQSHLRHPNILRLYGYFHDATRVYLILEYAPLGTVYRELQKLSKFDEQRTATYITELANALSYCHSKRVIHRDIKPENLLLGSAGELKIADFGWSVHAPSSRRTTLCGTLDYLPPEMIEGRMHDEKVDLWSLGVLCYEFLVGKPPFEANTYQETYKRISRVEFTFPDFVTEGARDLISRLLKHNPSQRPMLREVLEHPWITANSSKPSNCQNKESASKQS
Observed property: IC50 (µM)

Compound	Measurement
COc1cc2ncnc(Nc3ccc(/C=C/C(=O)NC4CCCC(C)C4)cc3)c2cc1OC (stereo not shown) [Compound 18]	0.117
